- Study target: Cytochrome P450 3A4 (Homo sapiens)
- Sequence (P08684 whole entry): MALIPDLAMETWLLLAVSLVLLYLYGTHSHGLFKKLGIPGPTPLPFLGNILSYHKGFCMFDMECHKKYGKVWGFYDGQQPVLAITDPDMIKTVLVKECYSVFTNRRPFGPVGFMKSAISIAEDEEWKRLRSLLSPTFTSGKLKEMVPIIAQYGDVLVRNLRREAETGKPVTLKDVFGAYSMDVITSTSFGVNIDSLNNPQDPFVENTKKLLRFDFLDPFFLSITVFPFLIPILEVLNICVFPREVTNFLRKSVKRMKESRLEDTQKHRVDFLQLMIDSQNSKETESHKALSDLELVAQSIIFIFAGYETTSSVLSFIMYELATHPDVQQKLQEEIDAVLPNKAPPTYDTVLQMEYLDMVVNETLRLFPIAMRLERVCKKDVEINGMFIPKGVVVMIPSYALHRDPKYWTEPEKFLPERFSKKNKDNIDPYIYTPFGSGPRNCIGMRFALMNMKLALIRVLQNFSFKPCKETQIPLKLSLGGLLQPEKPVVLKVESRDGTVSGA

>  <Query smiles>
O=C(O)CNC(=O)c1ncc(-c2cc(-c3cc(Cl)cc(Cl)c3)no2)cc1O

>  <Study target>
Cytochrome P450 3A4 (Homo sapiens)

>  <IC50>
> 30 µM

$$$$

###

- Study target: Cytochrome P450 2C9 (Homo sapiens, UniProt P11712)
- Sequence (P11712 whole entry): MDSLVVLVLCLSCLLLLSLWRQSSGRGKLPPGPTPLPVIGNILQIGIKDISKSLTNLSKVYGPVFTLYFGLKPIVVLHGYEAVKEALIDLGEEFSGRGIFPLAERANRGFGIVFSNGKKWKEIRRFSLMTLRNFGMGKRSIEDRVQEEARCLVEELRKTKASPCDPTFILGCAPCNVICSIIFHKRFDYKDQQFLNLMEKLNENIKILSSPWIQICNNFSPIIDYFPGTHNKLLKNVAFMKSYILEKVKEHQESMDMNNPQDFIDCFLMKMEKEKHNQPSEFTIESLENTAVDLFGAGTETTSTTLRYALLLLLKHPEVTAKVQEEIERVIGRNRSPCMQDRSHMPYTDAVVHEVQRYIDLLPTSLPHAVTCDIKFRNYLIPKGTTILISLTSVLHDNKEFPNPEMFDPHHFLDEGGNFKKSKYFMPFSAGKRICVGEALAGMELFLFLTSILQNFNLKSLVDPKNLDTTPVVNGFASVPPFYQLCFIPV
Assay endpoint: IC50

>  <Query smiles>
O=C(O)CNC(=O)c1ncc(-c2cc(-c3cc(Cl)cc(Cl)c3)no2)cc1O

>  <Observed measurement>
> 30 µM

$$$$

###

- Study target: UniProt P33261
- Sequence (P33261 whole entry): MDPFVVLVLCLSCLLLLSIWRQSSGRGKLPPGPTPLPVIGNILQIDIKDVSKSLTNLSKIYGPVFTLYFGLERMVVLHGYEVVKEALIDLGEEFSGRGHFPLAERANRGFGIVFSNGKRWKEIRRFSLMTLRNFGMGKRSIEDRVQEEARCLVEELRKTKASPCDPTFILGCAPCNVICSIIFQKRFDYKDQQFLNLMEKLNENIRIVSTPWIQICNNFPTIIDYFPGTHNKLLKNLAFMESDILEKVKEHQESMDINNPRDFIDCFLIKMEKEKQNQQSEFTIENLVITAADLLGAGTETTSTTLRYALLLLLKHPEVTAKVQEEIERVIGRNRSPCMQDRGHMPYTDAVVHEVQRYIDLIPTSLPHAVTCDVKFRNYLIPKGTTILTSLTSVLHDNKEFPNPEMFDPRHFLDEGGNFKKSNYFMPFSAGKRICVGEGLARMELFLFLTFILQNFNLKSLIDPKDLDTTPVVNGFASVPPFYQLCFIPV

>  <Query smiles>
O=C(O)CNC(=O)c1ncc(-c2cc(-c3cc(Cl)cc(Cl)c3)no2)cc1O

>  <IC50>
> 30 µM

$$$$

###

- Test details: Metabolic stability in rat liver microsomes assessed as intrinsic clearance in presence of NADPH by LC-MS/MS analysis
Assay endpoint: microsomal CLint

>  <Query smiles>
C[C@]12CC[C@H]3[C@@H](CCC4=CC(=O)CC[C@@]43C)[C@@H]1CC[C@@H]2O

>  <Observed measurement>
1200 µL/min/mg

$$$$
